Field IC50: reported value for Tyrosine-protein phosphatase non-receptor type 2 (Homo sapiens); entries drawn from several documents.
MEASURED QUANTITY: IC50 (µM)

COMPOUND	MEASURED QUANTITY	OBSERVED RESULT
O=C1NC[C@H](CNC(=O)c2ccc3sc(C(F)(F)P(=O)(O)O)c(Br)c3c2)N1	IC50	5.23
CCCCC1CCN(Cc2cc(O)c(N3CC(=O)NS3(=O)=O)c(F)c2)CC1	IC50	0.381
O=C1CN(c2c(O)cc(CN[C@H]3CCCNC3)cc2F)S(=O)(=O)N1	IC50	0.13

P = Cc1ccc(C=C2SC(=S)N(CCC(=O)Nc3ccc(S(=O)(=O)Nc4nccs4)cc3)C2=O)cc1
Q = Cn1cc(CCNC(=O)c2ccc3sc(C(F)(F)P(=O)(O)O)c(Br)c3c2)c2ccccc21
R = O=C(NCc1c[nH]nn1)c1cc(Cl)c2sc(C(F)(F)P(=O)(O)O)c(Br)c2c1
S = CC(C)(C)c1ccc(COc2cc(C(N)=O)cc3c(Br)c(C(F)(F)P(=O)(O)O)sc23)cc1
T = O=C(Nc1ccccc1OC1CCOCC1)c1ccc2sc(C(F)(F)P(=O)(O)O)c(Br)c2c1
# ascending order, key=IC50 Order the labels as requested and give them as your answer.
S, R, P, Q, T

====

Field pIC50: reported value for Tyrosine-protein phosphatase non-receptor type 2 (Homo sapiens); entries drawn from several documents.
pIC50: −log10 of the molar value.

State measured pIC50 of the compound CCCN(Cc1cc(O)c(N2CC(=O)NS2(=O)=O)c(F)c1)CC1CCC1 with Tyrosine-protein phosphatase non-receptor type 2 (Homo sapiens).
6.09

State measured pIC50 of the compound O=C(Nc1ccccc1)c1ccc2sc(C(F)(F)P(=O)(O)O)c(Cl)c2c1 with Tyrosine-protein phosphatase non-receptor type 2 (Homo sapiens).
5.07

State measured pIC50 of the compound Cn1cc(-c2ccc(O)c(N3CC(=O)NS3(=O)=O)c2F)nc1N with Tyrosine-protein phosphatase non-receptor type 2 (Homo sapiens).
≥ 6.00

State measured pIC50 of the compound O=C1CN(c2c(O)ccc(-c3cnn(Cc4cncnc4)c3)c2F)S(=O)(=O)N1 with Tyrosine-protein phosphatase non-receptor type 2 (Homo sapiens).
≥ 6.00
